Origin of measurements: paper PMC10387993

# Tested on: HT29
Strictly below 3 µg/mL in GI50: yes. Otherwise: no.

Reference set, count: 5
CC(=O)OC[C@H]1O[C@@H](Nc2nc(-c3ccncc3)cc(-c3cccc(C)c3)n2)[C@H](OC(C)=O)[C@@H](OC(C)=O)[C@@H]1OC(C)=O	no
Cc1ccccc1-c1cc(-c2ccccn2)nc(N[C@@H]2O[C@H](CO)[C@@H](O)[C@H](O)[C@H]2O)n1	no
CC(=O)OC[C@H]1O[C@@H](Nc2nc(-c3ccncc3)cc(-c3ccccc3C)n2)[C@H](OC(C)=O)[C@@H](OC(C)=O)[C@@H]1OC(C)=O	yes
Cc1cccc(-c2cc(-c3ccccn3)nc(N[C@@H]3O[C@H](CO)[C@@H](O)[C@H](O)[C@H]3O)n2)c1	no
CC(=O)OC[C@H]1O[C@@H](Nc2nc(-c3cccnc3)cc(-c3cccc(C)c3)n2)[C@H](OC(C)=O)[C@@H](OC(C)=O)[C@@H]1OC(C)=O	yes

## Input Below 3 µg/mL on GI50? Entry `Cc1ccccc1-c1cc(-c2cccnc2)nc(N[C@@H]2O[C@H](CO)[C@@H](O)[C@H](O)[C@H]2O)n1`
## Output yes

* * *

Parameter: cytotoxicity at 24 h, 100 μg/mL. Scope: all listed entries.
# procedure.details: LDH cytotoxic activity assay, Hep3B
# Type: cell-based
# condition.set: human, Hep3B cells, 100 μg/mL
Report as a plain number; the unit % is understood.

## Input Given `Cc1cccc(-c2cc(-c3ccccn3)nc(N[C@@H]3O[C@H](CO)[C@@H](O)[C@H](O)[C@H]3O)n2)c1` , respond with its cytotoxicity at 24 h, 100 μg/mL.
## Output 64.8

* * *

Parameter: cytotoxicity at 24 h, 25 μg/mL. Scope: all listed entries.
# procedure.details: LDH cytotoxic activity assay, A549
# Assay type: cell-based
# condition.set: human, A549 cells, A549, 25 μg/mL
Report as a plain number; the unit % is understood.

Example cases with answers are listed next.
Cc1cccc(-c2cc(-c3cccnc3)nc(N[C@@H]3O[C@H](CO)[C@@H](O)[C@H](O)[C@H]3O)n2)c1	24.4
O=c1[nH]cc(F)c(=O)[nH]1 [Compound 5FU, 5-fluorouracil, reference compound]	9.19
Cc1ccc(-c2cc(-c3cccnc3)nc(N[C@@H]3O[C@H](CO)[C@@H](O)[C@H](O)[C@H]3O)n2)cc1	28.1

## Input Given `Cc1ccc(-c2cc(-c3ccccn3)nc(N[C@@H]3O[C@H](CO)[C@@H](O)[C@H](O)[C@H]3O)n2)cc1` , respond with its cytotoxicity at 24 h, 25 μg/mL.
## Output 24.3

## Input Given `Cc1cccc(-c2cc(-c3ccccn3)nc(N[C@@H]3O[C@H](CO)[C@@H](O)[C@H](O)[C@H]3O)n2)c1` , respond with its cytotoxicity at 24 h, 25 μg/mL.
## Output 26

## Input Given `Cc1ccc(-c2cc(-c3ccncc3)nc(N[C@@H]3O[C@H](CO)[C@@H](O)[C@H](O)[C@H]3O)n2)cc1` , respond with its cytotoxicity at 24 h, 25 μg/mL.
## Output 27.4

## Input Given `Cc1cccc(-c2cc(-c3ccncc3)nc(N[C@@H]3O[C@H](CO)[C@@H](O)[C@H](O)[C@H]3O)n2)c1` , respond with its cytotoxicity at 24 h, 25 μg/mL.
## Output 27
